B1: PBXIP1 (parent)
chain: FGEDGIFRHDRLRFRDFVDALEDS

Variants of: B1
protocol-description: protein stability index of a GFP-peptide fusion (GPS, HEK-293T) (PSI 1-6); higher = more stable;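 also: lentivirally expressed fusions sorted by FACS into six bins by GFP to DsRed ratio, PSI derived from sequencing read proportions per bin multiplied by bin number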
measurement-context: c terminus: a fixed tail appended
measured-endpoint: protein stability index
// print number alone

Task item: I'd like to know its protein stability index. The variant in question is D4T
Reply: 2.24

Task item: I'd like to know its protein stability index. The variant in question is D19I
Reply: 1.91

Task item: I'd like to know its protein stability index. The variant in question is A20M
Reply: 2.13

Task item: I'd like to know its protein stability index. The variant in question is D19E
Reply: 2.6

Task item: I'd like to know its protein stability index. The variant in question is E3Q
Reply: 2.91

Task item: I'd like to know its protein stability index. The variant in question is G5K
Reply: 2.12

Task item: I'd like to know its protein stability index. The variant in question is E3S
Reply: 2.02

Task item: I'd like to know its protein stability index. The variant in question is L12A
Reply: 2.88

Task item: I'd like to know its protein stability index. The variant in question is F17E
Reply: 3.98

Task item: I'd like to know its protein stability index. The variant in question is S24W
Reply: 1.93

Task item: I'd like to know its protein stability index. The variant in question is D16I
Reply: 2.06

Task item: I'd like to know its protein stability index. The variant in question is F17Q
Reply: 3.58

Task item: I'd like to know its protein stability index. The variant in question is F14E
Reply: 3.86

Task item: I'd like to know its protein stability index. The variant in question is F14W
Reply: 2.2

Task item: I'd like to know its protein stability index. The variant in question is V18W
Reply: 2.07

Task item: I'd like to know its protein stability index. The variant in question is H9M
Reply: 2.73

Task item: I'd like to know its protein stability index. The variant in question is D4E
Reply: 3.08

Task item: I'd like to know its protein stability index. The variant in question is E3I
Reply: 2.91

Task item: I'd like to know its protein stability index. The variant in question is G2R
Reply: 2.69

Task item: I'd like to know its protein stability index. The variant in question is R8C
Reply: 2.51

Task item: I'd like to know its protein stability index. The variant in question is F1Q
Reply: 4.12

Task item: I'd like to know its protein stability index. The variant in question is D23H
Reply: 2.34

Data provenance: the supplement of paper PMC10567573
